Target: T1, Dimeric fibrinogen-like domain of mouse (Mus musculus) Ang-2 conjugated to human IgG1 (mouse (Mus musculus))
T1 construct: also called Dimeric Mouse Ang-2FD; Mouse Ang-2FD-hFc
T1 sequence (chain, as listed by the source limits assumed): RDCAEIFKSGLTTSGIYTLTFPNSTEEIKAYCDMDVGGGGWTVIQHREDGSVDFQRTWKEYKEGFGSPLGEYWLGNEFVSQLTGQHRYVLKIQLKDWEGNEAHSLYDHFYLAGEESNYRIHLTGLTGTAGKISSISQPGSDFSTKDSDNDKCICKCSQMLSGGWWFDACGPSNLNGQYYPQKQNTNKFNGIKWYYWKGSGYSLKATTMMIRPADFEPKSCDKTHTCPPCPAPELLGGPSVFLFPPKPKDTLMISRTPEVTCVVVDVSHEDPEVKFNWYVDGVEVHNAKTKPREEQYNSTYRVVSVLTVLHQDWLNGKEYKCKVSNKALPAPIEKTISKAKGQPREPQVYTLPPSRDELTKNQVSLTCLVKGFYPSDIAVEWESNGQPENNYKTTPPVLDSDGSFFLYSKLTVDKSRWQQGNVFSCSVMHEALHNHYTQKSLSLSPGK
Test: SPR, hIgG1 antibody captured, room temp
Assay readout: Kd
Phrase the answer as number then unit, nothing more needed.

If you can, please state the reported Kd value of H1H730N (antibody, V domains shown) VH: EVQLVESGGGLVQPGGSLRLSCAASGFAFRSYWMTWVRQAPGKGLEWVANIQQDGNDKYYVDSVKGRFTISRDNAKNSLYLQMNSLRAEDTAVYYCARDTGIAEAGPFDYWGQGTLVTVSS VL: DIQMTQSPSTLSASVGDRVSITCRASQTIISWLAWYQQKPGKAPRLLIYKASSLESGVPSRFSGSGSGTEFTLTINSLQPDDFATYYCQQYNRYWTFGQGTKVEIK .
0.0971 nM

Data request, read-out Kd, for H1H706P (antibody, V domains shown) VH: QVQLVESGGGVVQPGRSLRLSCAASGFTFSSYGMHWVRQAPDKGLEWVAVKWDDGSNKYYADSVKGRFTISRDNSKNTLYLQMNSLRAEDTAVYYCAREGPYDFYSGYGAFDIWGQGTMVTVSS VL: DIQMTQSPSSLSASVGDRVTITCRASQGISNYLAWFQQKPGKAPKSLIYAASSLQSGVPSKFSGSGSGTDFTLTISSLQPEDFATYYCQQYNSYPRTFGQGTKVEIK
0.357 nM

Can you share its Kd? I mean this binder: H1H732N (antibody, V domains shown) VH: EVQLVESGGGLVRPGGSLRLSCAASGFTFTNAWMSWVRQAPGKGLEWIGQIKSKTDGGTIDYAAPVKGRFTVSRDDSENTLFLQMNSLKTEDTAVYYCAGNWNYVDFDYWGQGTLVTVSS VL: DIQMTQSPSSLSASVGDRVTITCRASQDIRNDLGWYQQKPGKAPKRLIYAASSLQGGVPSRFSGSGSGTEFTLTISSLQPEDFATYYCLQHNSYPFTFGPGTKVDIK
0.529 nM

Which Kd is reported for this binder? H1H685P (antibody, V domains shown, also called mAb1) VH: EVQLVESGGGLVQPGGSLRLSCAASGFTFSSYDIHWVRQATGKGLEWVSAIGPAGDTYYPGSVKGRFTISRENAKNSLYLQMNSLRAGDTAVYYCARGLITFGGLIAPFDYWGQGTLVTVSS VL: EIVLTQSPGTLSLSPGERATLSCRASQSVSSTYLAWYQQKPGQAPRLLIYGASSRATGIPDRFSGSGSGTDFTLTISRLEPEDFAVYYCQHYDNSQTFGQGTKVEIK
0.148 nM

I would be grateful if you could share the reported Kd for H1H749N (antibody, V domains shown) VH: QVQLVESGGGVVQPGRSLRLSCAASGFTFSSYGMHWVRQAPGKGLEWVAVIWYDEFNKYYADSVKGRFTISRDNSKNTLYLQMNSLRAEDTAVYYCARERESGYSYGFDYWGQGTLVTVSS VL: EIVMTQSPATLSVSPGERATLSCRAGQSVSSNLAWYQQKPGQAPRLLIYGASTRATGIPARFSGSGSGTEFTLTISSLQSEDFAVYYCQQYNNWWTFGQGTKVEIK .
0.177 nM

Bench note: what Kd did H1H691P (antibody, V domains shown) VH: EVQLVESGGGLVQPGRSLRLSCAASGFTFDDYAMHWVRQAPGKGLEWVSGISWNSGDIGYADSVKGRFTISRDNAKNSLYLQMNSLRAQDTALYYCAKAYGDYYYFYGMDVWGQGTTVTVS VL: EIVLTQSPGTLSLSPGERATLSCRASQSVSSSYLAWYQQKPGQAPRLLIFSASSRATGIPDRFSGSGSGTDFTLTISRLEPEDFAVYYCQQYDNSLTFGGGTKVEIK show?
0.22 nM

Record request: Kd value, item H1H750N (antibody, V domains shown) VH: QVKLVESGGGVVQPGRSLRVSCAASGFTFSSYGMHWVRQAPGKGLEWLAIIWYDGDNKYYSDSVKGRFTISRDNSKNTLYLQMNSLRAEDTAEYYCVRDASIASRFLDYWGQGTLVTVSS VL: DIQMTQSPSSLSASIGDRVTITCRATQDINNYLAWFQQKPGKAPKSLIYATSNLQSGVPSKFSGSGSGTDYTLTISSLQPEDFSTYYCQQYHSYPLTFGGGTKVEIK
0.218 nM

Dear colleague, I am looking for the recorded Kd of the following binder: H1H696P (antibody, V domains shown) VH: QVQLVESGGGLVKPGGSLRLSCAASGFTFSDYYMSWIRQAPGKGLEWVSYISYTGRTIYYADSVKGRFTISRDNAKNSLYLQMNSLRAEDTAVYYCARDTDYGDFFDYWGQGTLVTVSS VL: DIQMTQSPSSLSASVGDRVTITCRASQGISNYLAWFQQKPGKAPKSLIYAASSLQSGVPSKFSGSGSGTDFTLTISSLQPEDFATYYCQQYNSYPLTFGGGTKVEIK
0.402 nM

Find the recorded Kd belonging to H1H724N (antibody, V domains shown) VH: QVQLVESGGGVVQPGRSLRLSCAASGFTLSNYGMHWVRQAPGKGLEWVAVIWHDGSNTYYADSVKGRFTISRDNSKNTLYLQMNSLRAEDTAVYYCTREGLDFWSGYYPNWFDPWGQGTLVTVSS VL: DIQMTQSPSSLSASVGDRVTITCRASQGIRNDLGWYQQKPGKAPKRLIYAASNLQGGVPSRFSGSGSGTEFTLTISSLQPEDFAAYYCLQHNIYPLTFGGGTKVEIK and report it.
0.185 nM

Could you tell me which Kd is on file for H1H695P (antibody, V domains shown) VH: QVQLVESGGGVVQPGRSLRLSCAASGFTFSSYGMHWVRQAPGKGLEWVAVMWYDETNKYYADSVKGRFTISRDNSKNTLYLQMNSLRAEDTAVYYCARYSGYEDYYHGMDVWGQGTTVTVS VL: EIVMTQSPATPSVSPGERATLSCRASQSISSNLAWYQQKPGQAPRLLIYGASTRATGIPARFSGSGSGTEFTLTISSLQSEDFAVYYCQHYNNWITFGQGTRLEIK ?
0.347 nM
